Literature roundup of UniProtKB P43088 data, read-out pKi.
Sequence (P43088 whole entry): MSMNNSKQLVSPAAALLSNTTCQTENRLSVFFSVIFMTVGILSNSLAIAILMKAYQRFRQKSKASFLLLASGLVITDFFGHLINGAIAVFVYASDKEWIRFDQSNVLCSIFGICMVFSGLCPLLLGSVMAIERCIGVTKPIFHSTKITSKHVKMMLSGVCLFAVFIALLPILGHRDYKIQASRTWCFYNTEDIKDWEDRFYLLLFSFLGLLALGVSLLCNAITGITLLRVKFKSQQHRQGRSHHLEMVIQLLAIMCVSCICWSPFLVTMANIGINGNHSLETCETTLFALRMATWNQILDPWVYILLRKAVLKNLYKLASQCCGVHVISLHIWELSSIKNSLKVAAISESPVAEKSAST
pKi: −log10 of the molar value.

Sample answers from the record:
[
  {
    "Compound": "Cc1ccc(OCc2c(Cl)cccc2Cl)c(/C=C/Cc2ccccc2/C=C/C(=O)O)c1",
    "pKi": "< 6.30"
  },
  {
    "Compound": "Cc1sc(C)c(C(=O)N[C@@H](C)c2ccc(C(=O)O)cc2)c1Cc1ccc(Cl)cc1",
    "pKi": "< 5.67"
  },
  {
    "Compound": "O=C(O)COc1cccc2c1CC[C@](O)(COC(=O)N(c1ccccc1)c1ccccc1)C2",
    "pKi": "< 5.00"
  },
  {
    "Compound": "Cc1ccc(N(CCN2CCC(OCC(=O)O)CC2)C(=O)c2ccccc2)cc1",
    "pKi": "< 4.30"
  },
  {
    "Compound": "O=C(O)CC1CCCc2c1n(Cc1ccc(Cl)cc1)c1c(F)cc(F)cc21 (stereo not drawn)",
    "pKi": "< 4.70"
  },
  {
    "Compound": "Cc1sc(C)c(C(=O)N[C@@H](C)c2ccc(C(=O)O)cc2)c1Cc1cccc(C(F)(F)F)c1",
    "pKi": "< 5.46"
  },
  {
    "Compound": "O=C(O)COc1cccc(C[C@@H]2CCCC=C2c2nc(-c3ccccc3)c(-c3ccccc3)o2)c1",
    "pKi": "< 6.00"
  },
  {
    "Compound": "COc1cccc(OC)c1C1(C(=O)NS(=O)(=O)Cc2ccc(N3Cc4c(c(OCC(F)(F)F)c5cccnc5c4OCC(F)(F)F)C3=O)c(C)c2)CC1",
    "pKi": 6.47
  },
  {
    "Compound": "O=C(O)/C=C/c1ccccc1Cc1ccc2cc(OCc3ccccc3)ccc2c1",
    "pKi": "< 6.30"
  },
  {
    "Compound": "O=C(O)c1ccc(C2(NC(=O)c3cc(Cl)cc4ccn(Cc5ccc(C(F)(F)F)cc5)c34)CC2)cc1",
    "pKi": "≤ 5.89"
  }
]

Prompt: Look up and report pKi, with UniProtKB P43088 as system, for O=C(O)/C=C/c1ccccc1Cc1ccc2ccccc2c1
Response: < 6.30

Prompt: Look up and report pKi, with UniProtKB P43088 as system, for CCOc1c2c(c(OCC)c3ncccc13)CN(c1ccc(CS(=O)(=O)NC(=O)Cc3ccccc3OC)cc1C)C2=O
Response: 5.70

Prompt: Look up and report pKi, with UniProtKB P43088 as system, for CCc1cccc(NC(=O)Nc2cccn(Cc3ccccc3Cl)c2=O)c1
Response: < 5.00

Prompt: Look up and report pKi, with UniProtKB P43088 as system, for C[C@H](NC(=O)c1cccc2ccn(Cc3cc(Cl)cc(OC(F)(F)F)c3)c12)c1ccc(C(=O)O)cc1
Response: ≤ 6.59

Prompt: Look up and report pKi, with UniProtKB P43088 as system, for O=C(O)C1CC1c1ccccc1-c1csc(-c2ccccc2OCc2ccccc2)c1 (stereo not drawn)
Response: 4.66

Prompt: Look up and report pKi, with UniProtKB P43088 as system, for Cc1ccc(N(CCN2CCC(OCC(=O)O)CC2)C(=O)c2ccc3c(c2)OCO3)cc1.Cl.O
Response: < 4.30

Prompt: Look up and report pKi, with UniProtKB P43088 as system, for O=C(NCCC[C@H](NC(=O)c1cc2ccccc2[nH]1)C(=O)N[C@@H](Cc1ccccc1)C(=O)O)OCc1ccccc1
Response: < 6.00

Prompt: Look up and report pKi, with UniProtKB P43088 as system, for O=C(/C=C/c1ccccc1Cc1ccc2ccccc2c1)NS(=O)(=O)c1cccs1
Response: < 6.30

Prompt: Look up and report pKi, with UniProtKB P43088 as system, for Cc1ccc(OCc2ccccc2)c(/C=C/Cc2ccccc2/C=C/C(=O)O)c1
Response: < 6.30

Prompt: Look up and report pKi, with UniProtKB P43088 as system, for C[C@H](NC(=O)c1cccc2ccn(Cc3cccc(Cl)c3)c12)c1ccc(C(=O)O)cc1
Response: ≤ 5.60

Prompt: Look up and report pKi, with UniProtKB P43088 as system, for C[C@H](NC(=O)c1cc(F)cc2ccn(Cc3cccc(Cl)c3)c12)c1ccc(C(=O)O)cc1
Response: ≤ 6.30

Prompt: Look up and report pKi, with UniProtKB P43088 as system, for C[C@H](NC(=O)c1cc(Cl)cc2ccn(Cc3cccc(Cl)c3)c12)c1ccc(C(=O)O)cc1
Response: ≤ 6.96

Prompt: Look up and report pKi, with UniProtKB P43088 as system, for Cc1sc(C)c(C(=O)NC2(c3ccc(-c4nn[nH]n4)cc3)CC2)c1Cc1ccc(C(F)(F)F)cc1
Response: < 6.30

Prompt: Look up and report pKi, with UniProtKB P43088 as system, for COc1ccc(Br)cc1S(=O)(=O)NC(=O)/C=C/c1ccccc1Cc1ccc2cc(OCc3ccccc3)ccc2c1
Response: < 6.30

Prompt: Look up and report pKi, with UniProtKB P43088 as system, for O=C(O)COc1cccc2c1CCC[C@H]2N1CCC[C@@H]1c1nc(-c2ccccc2)c(-c2ccccc2)o1
Response: < 6.00

Prompt: Look up and report pKi, with UniProtKB P43088 as system, for C[C@H](NC(=O)c1c(Cl)sc(Cl)c1Cc1cccc(Cl)c1)c1ccc(C(=O)O)cc1
Response: < 6.34

Prompt: Look up and report pKi, with UniProtKB P43088 as system, for O=C([O-])COc1cccc(C[C@@H]2CCC[C@@H]3O[C@]23c2nc(-c3ccccc3)c(-c3ccccc3)o2)c1.[Na+]
Response: < 5.00
